Hello, the source for this data is paper PMC11410521, in case you need it.

Test system: CYP3A4
Assay: THC incubations with recombinant CYP3A4 in the presence and absence of FABP1
Type: in vitro ADME, human
Details: human, recombinant CYP3A4 (Supersomes), Km,u −FABP1, M2 formation, recombinant CYP3A4, absence of FABP1
assay.metric: Km at 1 min
State the value, then name its unit.

Please report Km at 1 min with CYP3A4 for item CCCCCc1cc(O)c2c(c1)OC(C)(C)[C@@H]1CCC(C)=C[C@@H]21 [THC, Δ9-tetrahydrocannabinol] .
29 nM

---

Test system: recombinant CYP2C9
Test: THC incubations with recombinant CYP2C9 in the presence and absence of FABP1
Type: in vitro ADME, human
Details: read-out: Km,u −FABP1, 11-OH-THC formation; recombinant CYP2C9, absence of FABP1
assay.metric: Km (nM)
All answers are understood in nM, so give the number only.

Give the value of Km reported for the following: CCCCCc1cc(O)c2c(c1)OC(C)(C)[C@@H]1CCC(C)=C[C@@H]21 [THC, Δ9-tetrahydrocannabinol]
0.77

---

Test system: CYP2C9
Assay: THC incubations with recombinant CYP2C9 in the presence and absence of FABP1
Format: in vitro ADME, human
Conditions: human, recombinant CYP2C9 (Supersomes), Km,u −FABP1, 11-OH-THC formation, recombinant CYP2C9, absence of FABP1
assay.metric: Km at 1 min (nM)
A number alone suffices; assume nM.

Please give measured Km at 1 min of the following entry: CCCCCc1cc(O)c2c(c1)OC(C)(C)[C@@H]1CCC(C)=C[C@@H]21 [THC, Δ9-tetrahydrocannabinol]
0.8

---

Assay: THC unbound fraction in human liver microsome incubations
Format: in vitro ADME
Details: pooled liver microsomes, pH 7.4
assay.metric: fraction unbound at 30 min
Enter the number alone.

Look up and report measured fraction unbound at 30 min for this entry: CCCCCc1cc(O)c2c(c1)OC(C)(C)[C@@H]1CCC(C)=C[C@@H]21 [THC, Δ9-tetrahydrocannabinol]
0.015

---

Molecular target: human FABP1 (Homo sapiens)
Sequence (P07148 whole entry): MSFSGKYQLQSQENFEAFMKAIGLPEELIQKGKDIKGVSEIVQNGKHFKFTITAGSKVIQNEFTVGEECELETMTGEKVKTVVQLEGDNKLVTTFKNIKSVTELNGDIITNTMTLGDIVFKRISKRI
Assay: DAUDA displacement assay of cannabinoid binding to FABP1
assay.metric: Kd (µM)
Supply the numeric figure in µM, leaving out any unit text.

Write down Kd measured for item CCCCC/C=C\C/C=C\C/C=C\C/C=C\CCCC(=O)OC(CO)CO
0.06

---

Test: Kinetics of THC metabolite formation in pooled human liver microsomes
Assay type: in vitro ADME
Conditions: human, pooled human liver microsomes, Km,unbound of M4 formation, pooled HLMs 0.1 mg/mL; no saturation, linear
assay.metric: Km at 2 min

Consider the compound CCCCCc1cc(O)c2c(c1)OC(C)(C)[C@@H]1CCC(C)=C[C@@H]21 [THC, Δ9-tetrahydrocannabinol] and give its recorded Km at 2 min.
> 45 nM
